Biological target: Fatty acid synthase (Homo sapiens, UniProt P49327)
Sequence (P49327 whole entry, the tested form may be a part): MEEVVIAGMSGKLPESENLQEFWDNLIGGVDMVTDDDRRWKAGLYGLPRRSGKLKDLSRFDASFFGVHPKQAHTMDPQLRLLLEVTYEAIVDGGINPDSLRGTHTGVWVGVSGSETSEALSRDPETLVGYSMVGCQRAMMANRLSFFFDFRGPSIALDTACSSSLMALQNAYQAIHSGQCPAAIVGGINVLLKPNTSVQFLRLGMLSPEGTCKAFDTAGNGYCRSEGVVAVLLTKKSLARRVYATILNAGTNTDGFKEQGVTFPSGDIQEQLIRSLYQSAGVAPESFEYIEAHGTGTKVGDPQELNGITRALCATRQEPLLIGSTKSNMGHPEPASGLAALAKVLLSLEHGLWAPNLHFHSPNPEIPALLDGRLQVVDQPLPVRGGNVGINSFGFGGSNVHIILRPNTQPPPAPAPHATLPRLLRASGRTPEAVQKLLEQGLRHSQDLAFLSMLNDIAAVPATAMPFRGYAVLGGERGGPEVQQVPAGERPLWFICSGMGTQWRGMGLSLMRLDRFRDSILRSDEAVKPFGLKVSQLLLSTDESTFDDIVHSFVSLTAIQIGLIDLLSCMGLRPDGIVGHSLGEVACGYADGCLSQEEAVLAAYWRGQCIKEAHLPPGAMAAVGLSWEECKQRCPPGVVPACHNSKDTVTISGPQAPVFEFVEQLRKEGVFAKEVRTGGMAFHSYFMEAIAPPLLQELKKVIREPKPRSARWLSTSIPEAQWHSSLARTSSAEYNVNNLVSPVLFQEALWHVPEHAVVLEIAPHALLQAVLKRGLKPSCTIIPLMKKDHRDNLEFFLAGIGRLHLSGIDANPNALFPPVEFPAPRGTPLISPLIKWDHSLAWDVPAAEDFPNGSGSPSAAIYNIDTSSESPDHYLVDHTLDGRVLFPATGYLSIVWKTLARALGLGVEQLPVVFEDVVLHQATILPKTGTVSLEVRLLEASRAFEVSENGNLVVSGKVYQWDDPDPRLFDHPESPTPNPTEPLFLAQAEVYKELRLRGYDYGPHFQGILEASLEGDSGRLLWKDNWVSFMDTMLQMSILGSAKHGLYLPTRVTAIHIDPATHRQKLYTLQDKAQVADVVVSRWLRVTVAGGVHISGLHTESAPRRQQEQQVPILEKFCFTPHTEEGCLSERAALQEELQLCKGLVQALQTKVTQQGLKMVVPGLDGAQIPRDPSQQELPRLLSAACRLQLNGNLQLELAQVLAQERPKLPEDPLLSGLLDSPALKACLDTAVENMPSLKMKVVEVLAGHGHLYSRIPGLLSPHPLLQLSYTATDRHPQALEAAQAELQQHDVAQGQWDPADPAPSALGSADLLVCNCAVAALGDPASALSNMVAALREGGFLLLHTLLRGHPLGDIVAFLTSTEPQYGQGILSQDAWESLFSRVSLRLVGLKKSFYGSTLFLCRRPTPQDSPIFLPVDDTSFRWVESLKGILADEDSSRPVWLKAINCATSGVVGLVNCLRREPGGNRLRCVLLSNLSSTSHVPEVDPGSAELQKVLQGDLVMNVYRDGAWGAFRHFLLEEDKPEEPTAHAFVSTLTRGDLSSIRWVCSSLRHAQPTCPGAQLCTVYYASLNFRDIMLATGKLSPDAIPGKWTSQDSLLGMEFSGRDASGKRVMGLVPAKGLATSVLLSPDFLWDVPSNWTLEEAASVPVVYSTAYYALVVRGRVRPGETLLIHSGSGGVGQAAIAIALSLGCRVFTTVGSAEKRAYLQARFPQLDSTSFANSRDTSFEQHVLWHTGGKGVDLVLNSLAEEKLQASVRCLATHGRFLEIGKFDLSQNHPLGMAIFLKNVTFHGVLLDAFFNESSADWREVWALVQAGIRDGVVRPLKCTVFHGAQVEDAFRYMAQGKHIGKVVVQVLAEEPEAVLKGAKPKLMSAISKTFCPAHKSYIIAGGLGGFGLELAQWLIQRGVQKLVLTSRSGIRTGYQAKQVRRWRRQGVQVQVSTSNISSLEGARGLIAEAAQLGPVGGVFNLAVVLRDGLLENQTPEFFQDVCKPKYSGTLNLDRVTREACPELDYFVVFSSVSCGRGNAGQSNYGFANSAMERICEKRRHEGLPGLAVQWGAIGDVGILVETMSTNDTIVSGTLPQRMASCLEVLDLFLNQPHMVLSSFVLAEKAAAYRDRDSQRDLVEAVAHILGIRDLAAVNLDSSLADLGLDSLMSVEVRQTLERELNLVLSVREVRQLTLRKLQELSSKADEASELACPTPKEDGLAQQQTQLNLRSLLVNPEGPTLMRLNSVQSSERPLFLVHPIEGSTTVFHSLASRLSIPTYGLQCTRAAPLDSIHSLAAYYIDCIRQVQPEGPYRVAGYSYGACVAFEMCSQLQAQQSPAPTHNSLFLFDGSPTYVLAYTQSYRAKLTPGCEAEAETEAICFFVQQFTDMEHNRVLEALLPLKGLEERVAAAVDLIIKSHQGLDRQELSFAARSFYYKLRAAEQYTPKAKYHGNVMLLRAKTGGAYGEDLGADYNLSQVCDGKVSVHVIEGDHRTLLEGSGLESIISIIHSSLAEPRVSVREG
Assay: FAS thioesterase domain inhibitors, dose response, biochemical, kinetic fluorescence intensity (AID 624326);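 further: rate of fluorescence rise from hydrolysis of a fluorogenic O-methyl fluorescein ester substrate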
Type: functional
Activity calls are given as the source filed them. No stated cut-off is given here; in the data, active = IC50 of 20 µM or less and inactive = more.
PROPERTY_MEASURED: IC50

Worked set:
COMPOUND: CC[C@]1(c2cccc(C)c2)C(=O)N(C(=O)OC)N1C(=O)OC
IC50: 8.6 µM (active)

COMPOUND: CC(C)(C)SCCNC(=O)/C=C/c1cccc([N+](=O)[O-])c1
IC50: 6.29 µM (active)

COMPOUND: Cc1ccc([N+](=O)[O-])cc1NC(=O)CN(C(=O)c1ccc(Cl)cc1)C1CCCCC1
IC50: 1.24 µM (active)

COMPOUND: O=C(NCCCCc1ccccc1)C1CC(c2cccc([N+](=O)[O-])c2)=NO1 (stereo unspecified)
IC50: 4.27 µM (active)

COMPOUND: CC(=O)Nc1ccc(NC(=O)c2ccccc2S(=O)(=O)c2ccc([N+](=O)[O-])cc2)cc1
IC50: 15.9 µM (active)

Read the next record carefully.
Specify IC50 for `CCOC(=O)c1cc2c(=Cc3ccc(N(C)C)cc3)c3ccccc3n2[n+]1C` and stop.
8.42 µM (active)
